tested on: 653999-131-R-J2-PDC complex spheroids, growth % test/control; assay: Anticancer human tumor 653999-131-R-J2-PDC patient-derived lung adenocarcinoma cell line growth inhibition [AhR]; settings: second compound 10 µM; first compound 0.000316 µM; hits give low values;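 further: spheroids exposed to agents for seven days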
// returns no unless viability, T/C is strictly below 90%, in which case yes

Input Cn1ncnc1C1c2n[nH]c(=O)c3cc(F)cc(c23)NC1c1ccc(F)cc1 (stereo unspecified) + Cc1cncc(-c2nc(NCCc3c[nH]c4ccccc34)c3ncn(C(C)C)c3n2)c1 ; condition: viability, T/C strictly below 90%. Does it hold? yes

Find out if reported viability, T/C for CC[C@@]1(O)C(=O)OCc2c1cc1n(c2=O)Cc2cc3c(CN(C)C)c(O)ccc3nc2-1 + Cc1ccccc1N=Nc1ccc(NC(=O)c2ccnn2C)c(C)c1 is less than 90% no

Decide: viability, T/C of Cn1ncnc1C1c2n[nH]c(=O)c3cc(F)cc(c23)NC1c1ccc(F)cc1 (stereo unspecified) + CC(CO)NC(=O)c1cc(-c2ccc(Cl)cc2)nn(-c2cnn(C)c2)c1=O strictly below 90%? no

Please let me know if CC[C@@]1(O)C(=O)OCc2c1cc1n(c2=O)Cc2cc3c(CN(C)C)c(O)ccc3nc2-1 + Cc1cncc(-c2nc(NCCc3c[nH]c4ccccc34)c3ncn(C(C)C)c3n2)c1 shows viability, T/C below 90%. yes

hey, is viability, T/C for Cn1ncnc1C1c2n[nH]c(=O)c3cc(F)cc(c23)NC1c1ccc(F)cc1 (stereo unspecified) + Cc1ccccc1N=Nc1ccc(NC(=O)c2ccnn2C)c(C)c1 lower than 90% or not? yes

Reference for the values: PubChem BioAssay AID1919000
